The reported measurements were obtained from PubChem BioAssay.

assay: small-molecule microarray binders of probe aShh, primary screen, biochemical, biotinylated probe, 635/667 nm fluorescence (AID 1114); settings: higher = more signal;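 further: probe is biotin-labelled aShh protein from a stem cell growth factor screen; measures binding of labelled protein to compounds printed on the slide; score merges feature fluorescence at 667 nm with signal-to-noise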
REPORTED ENDPOINT: composite z-score

Example results:
COMPOUND | composite z-score
CO[C@H]1O[C@H](CO)[C@@H](OC(=O)Nc2ccc(Oc3ccccc3)cc2)[C@H](OC(=O)Nc2ccccc2-c2ccccc2)[C@H]1OC(=O)Nc1ccccc1-c1ccccc1 | 0.11
CCN1C(C)=C(C(=O)OC)[C@@H](c2ccccc2)N2C(=O)[C@@]3(C(=O)OC)O[C@@]12[C@@H]1C(=O)N(C)C(=O)[C@@H]13 | -0.283
CCN1C(C)=C(C(=O)OC)[C@@H](c2ccccc2)N2C(=O)[C@@]3(C(=O)OC)O[C@@]12[C@@H]1C(=O)CCC[C@@H]13 | 0.0637
COCCOC(=O)N1C(=O)[C@@]2(c3cc(C#CC4=CCCCC4)ccc31)[C@H](C(=O)NC[C@H](O)c1ccccc1)[C@H]1C(=O)O[C@H](c3ccccc3)[C@H](c3ccccc3)N1[C@@H]2c1ccc(OCCO)cc1 | -0.279
CCc1cccc(NC(=O)O[C@H]2[C@H](OC(=O)Nc3ccccc3)[C@@H](OC(=O)Nc3ccccc3)[C@@H](OC)O[C@@H]2CO)c1 | 0.19
COC(=O)c1ccc(C#CC(NP(=O)(c2ccccc2)c2ccccc2)c2ccccc2)cc1 (configuration not stated) | -0.519

Moving on to the next compound.
compound COC(=O)C1=CC(c2ccc(CO)cc2)=CC(C2CC2)N(Cc2sc3ccccc3c2Cl)C=C1C(=O)OC (configuration not stated) , composite z-score observed: 0.246
